Consider the following molecules and their measured inhibition readings.
- TEST_SYSTEM: Interleukin-1 beta (Homo sapiens)
- PROCEDURE_DETAILS: Inhibition of IL-1beta in PMA-differentiated human THP-1 cells at 200 nM co-incubated with compound and LPS for 24 hrs by ELISA relative to control
- Type: cell-based
READOUT_KIND: inhibition (%)

{"CHEMICAL_STRING": "O=C(Nc1c2c(cc3c1CCC3)CCC2)NS(=O)(=O)c1ccc(OCCOCCOCCOCCN2C(=O)/C(=C/c3cc(Br)c(O)c(Br)c3)c3cc(Br)ccc32)cc1", "MEASURED_VALUE": 66.6}
{"CHEMICAL_STRING": "O=C(Nc1c2c(cc3c1CCC3)CCC2)NS(=O)(=O)c1ccc(OCCCCCCCCCCCCN2C(=O)/C(=C/c3cc(Br)c(O)c(Br)c3)c3cc(I)ccc32)cc1", "MEASURED_VALUE": 7.9}
{"CHEMICAL_STRING": "O=C(Nc1c2c(cc3c1CCC3)CCC2)NS(=O)(=O)c1ccc(OCCCCN2C(=O)/C(=C/c3cc(Br)c(O)c(Br)c3)c3cc(I)ccc32)cc1", "MEASURED_VALUE": 48.5}
{"CHEMICAL_STRING": "O=C(Nc1c2c(cc3c1CCC3)CCC2)NS(=O)(=O)c1ccc(OCCCCCCCCCCCCN2C(=O)/C(=C/c3cc(Br)c(O)c(Br)c3)c3cc(Br)ccc32)cc1", "MEASURED_VALUE": 19.5}
{"CHEMICAL_STRING": "O=C(Nc1c2c(cc3c1CCC3)CCC2)NS(=O)(=O)c1ccc(OCCCCN2C(=O)/C(=C/c3cc(Br)c(O)c(Br)c3)c3cc(Br)ccc32)cc1", "MEASURED_VALUE": 49.2}
{"CHEMICAL_STRING": "COc1cc(/C=C2/C(=O)N(CCCCOc3ccc(S(=O)(=O)NC(=O)Nc4c5c(cc6c4CCC6)CCC5)cc3)c3ccc(Br)cc32)cc(Br)c1O", "MEASURED_VALUE": 40.8}

----------
- PROCEDURE_DETAILS: Clearance in C57BL/6J mouse at 5 mg/kg, iv measured for 24 hrs by LC-MS/MS analysis
- Assay type: ADME, organism-based
- RECORDED_CONDITIONS: in vivo
READOUT_KIND: clearance (mL/min/kg)

{"CHEMICAL_STRING": "O=C(Nc1c2c(cc3c1CCC3)CCC2)NS(=O)(=O)c1ccc(OCCOCCOCCOCCN2C(=O)/C(=C/c3cc(Br)c(O)c(Br)c3)c3cc(I)ccc32)cc1", "MEASURED_VALUE": 28.4}

----------
- TEST_SYSTEM: Interleukin-1 beta (Homo sapiens) (UniProt P01584)
- Sequence (P01584 117-269 limits assumed): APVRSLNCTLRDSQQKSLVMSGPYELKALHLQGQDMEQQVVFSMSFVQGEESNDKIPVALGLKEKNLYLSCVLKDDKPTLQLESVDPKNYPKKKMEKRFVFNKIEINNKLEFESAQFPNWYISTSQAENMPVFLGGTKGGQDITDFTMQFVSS
- PROCEDURE_DETAILS: Inhibition of IL-1beta in PMA-differentiated human THP-1 cells at 100 nM co-incubated with compound and LPS for 24 hrs by ELISA relative to control
- Assay type: cell-based

{"CHEMICAL_STRING": "O=C(Nc1c2c(cc3c1CCC3)CCC2)NS(=O)(=O)c1ccc(OCCOCCOCCN2C(=O)/C(=C/c3cc(Br)c(O)c(Br)c3)c3cc(I)ccc32)cc1", "inhibition, %": 50.5}
{"CHEMICAL_STRING": "O=C(Nc1c2c(cc3c1CCC3)CCC2)NS(=O)(=O)c1ccc(OCCCCCCCCN2C(=O)/C(=C/c3cc(Br)c(O)c(Br)c3)c3cc(Br)ccc32)cc1", "inhibition, %": -5.3}
{"CHEMICAL_STRING": "COc1cc(/C=C2/C(=O)N(CCCCOc3ccc(S(=O)(=O)NC(=O)Nc4c5c(cc6c4CCC6)CCC5)cc3)c3ccc(Br)cc32)cc(Br)c1O", "inhibition, %": 19.2}
{"CHEMICAL_STRING": "COc1cc(/C=C2/C(=O)N(CCOCCOCCOc3ccc(S(=O)(=O)NC(=O)Nc4c5c(cc6c4CCC6)CCC5)cc3)c3ccc(Br)cc32)cc(Br)c1O", "inhibition, %": 16.5}
{"CHEMICAL_STRING": "COc1ccc(Cl)cc1C(=O)NCCc1ccc(S(=O)(=O)NCCOCCOCCOCCN2C(=O)/C(=C/c3cc(Br)c(O)c(OC)c3)c3cc(Br)ccc32)cc1", "inhibition, %": 8.2}

Value source: ChEMBL document CHEMBL5579826
